Origin of values: patent US9650340B2

# system under test: CDK2/CycE (Homo sapiens, UniProt P24941)
# Construct: GST; purchased ProQinase GmbH (Freiburg, Germany); host or cells: insect cells (Sf9)
# experimental details: CDK2/CycE kinase assay (TR-FRET, 10 μM ATP)
# Type: biochemical
# settings: Method 2 (2a)
IC50 under 100 nM gets 1 (yes), anything at or over 100 nM gets 0 (no).

Is IC50 of COc1cc(F)ccc1-c1cc(Nc2cc(CS(C)(=O)=NC#N)ccn2)ncc1F (single isomer, unassigned) strictly below 100 nM?
1 (yes)

Is IC50 of COc1cc(F)ccc1-c1cc(Nc2cc(CS(C)(=N)=O)ccn2)ncc1F.Cl (single isomer, unassigned; enantiomer 2) strictly below 100 nM?
0 (no)

Is IC50 of CCOc1cc(F)ccc1-c1cc(Nc2cc(CS(C)(=N)=O)cc(F)n2)ncc1F (racemic) [Example 26] strictly below 100 nM?
0 (no)

Proceed to the following item.
Is IC50 of COc1cc(F)ccc1-c1cc(Nc2cc(CS(C)(=N)=O)ccn2)ncc1F (single isomer, unassigned; (-)) [Example 3] strictly below 100 nM?
0 (no)
